Test system: NCI-H460
Assay: NCI 60 cell line five dose, Non-Small Cell Lung Cancer
Below, each entry is listed alongside its reported GI50.
parameter: GI50 (µM)

compound: C=C1C(=O)O[C@H]2[C@H]1CC/C(COC(=O)CCC(=O)NCCCCCCCCCNC(=O)CCC(=O)OC/C1=C/CC[C@@]3(C)O[C@H]3[C@H]3OC(=O)C(=C)[C@@H]3CC1)=C\CC[C@@]1(C)O[C@@H]21 [JVM 2-92]
parameter: GI50
units.of.measure: µM
readout.number: 2.18
//
compound: C=C1C(=O)O[C@H]2[C@H]1CC/C(COC(=O)NCCCCCNC(=O)OC/C1=C/CC[C@@]3(C)O[C@H]3[C@H]3OC(=O)C(=C)[C@@H]3CC1)=C\CC[C@@]1(C)O[C@@H]21 [JVM 2-76]
parameter: GI50
units.of.measure: µM
readout.number: 4.34
//
compound: C=C1C(=O)O[C@H]2[C@H]1CC/C(COC(=O)CCC(=O)NCCCCCCCCNC(=O)CCC(=O)OC/C1=C/CC[C@@]3(C)O[C@H]3[C@H]3OC(=O)C(=C)[C@@H]3CC1)=C\CC[C@@]1(C)O[C@@H]21 [JVM 2-87]
parameter: GI50
units.of.measure: µM
readout.number: 5
//
compound: C=C1C(=O)O[C@H]2[C@H]1CC/C(COC(=O)NCCCCNC(=O)OC/C1=C/CC[C@@]3(C)O[C@H]3[C@H]3OC(=O)C(=C)[C@@H]3CC1)=C\CC[C@@]1(C)O[C@@H]21 [JVM 3-54]
parameter: GI50
units.of.measure: µM
readout.number: 4.61

---

Tested on: SNB-75
Assay: NCI 60 cell line five dose, CNS Cancer
Below, each entry is listed alongside its reported GI50.

compound: C=C1C(=O)O[C@H]2[C@H]1CC/C(COC(=O)NCCCCNC(=O)OC/C1=C/CC[C@@]3(C)O[C@H]3[C@H]3OC(=O)C(=C)[C@@H]3CC1)=C\CC[C@@]1(C)O[C@@H]21 [JVM 3-54]
target.of.assay: SNB-75
GI50 (µM): 2.19

compound: C=C1C(=O)O[C@H]2[C@H]1CC/C(COC(=O)NCCCCCNC(=O)OC/C1=C/CC[C@@]3(C)O[C@H]3[C@H]3OC(=O)C(=C)[C@@H]3CC1)=C\CC[C@@]1(C)O[C@@H]21 [JVM 2-76]
target.of.assay: SNB-75
GI50 (µM): 2.2

compound: C=C1C(=O)O[C@H]2[C@H]1CC/C(COC(=O)CCC(=O)NCCCCCCCCCNC(=O)CCC(=O)OC/C1=C/CC[C@@]3(C)O[C@H]3[C@H]3OC(=O)C(=C)[C@@H]3CC1)=C\CC[C@@]1(C)O[C@@H]21 [JVM 2-92]
target.of.assay: SNB-75
GI50 (µM): 1.47

compound: C=C1C(=O)O[C@H]2[C@H]1CC/C(COC(=O)CCC(=O)NCCCCCCCCNC(=O)CCC(=O)OC/C1=C/CC[C@@]3(C)O[C@H]3[C@H]3OC(=O)C(=C)[C@@H]3CC1)=C\CC[C@@]1(C)O[C@@H]21 [JVM 2-87]
target.of.assay: SNB-75
GI50 (µM): 2.02

---

System: MOLT-4
Test: NCI 60 cell line five dose, Leukemia
Conditions: read-out: LC50
Below, each entry is listed alongside its reported CC50.

structure.smiles.string: C=C1C(=O)O[C@H]2[C@H]1CC/C(COC(=O)NCCCCNC(=O)OC/C1=C/CC[C@@]3(C)O[C@H]3[C@H]3OC(=O)C(=C)[C@@H]3CC1)=C\CC[C@@]1(C)O[C@@H]21
CC50: > 100 µM
//
structure.smiles.string: C=C1C(=O)O[C@H]2[C@H]1CC/C(COC(=O)NCCCCCNC(=O)OC/C1=C/CC[C@@]3(C)O[C@H]3[C@H]3OC(=O)C(=C)[C@@H]3CC1)=C\CC[C@@]1(C)O[C@@H]21
CC50: > 100 µM
